Reference source for all entries: the supplement of paper PMC7411054

# Test system: WPMY1-ACTB-RAB5A
# assayName: lowest phenotypically active concentration; higher = less potent
# settings: treatment time: 24 h
Where a name gives a salt, the structure may show the parent alone.
measuredProperty: lowest phenotypically active concentration (µM)
Answers are plain numbers, in µM.

> print(dat)
                                   compound               tgt  displayunit  recordedresult
1  CC1CNCCN1S(=O)(=O)c1cccc2cnccc12 (centres undefined) [H-7 dihydrochloride]  WPMY1-ACTB-RAB5A           µM               9
2  CC1(C)CC(=O)C2=C(C1)NC(=S)NC2c1cccc(O)c1 (centres undefined)  WPMY1-ACTB-RAB5A           µM               1
3  Cc1cc(Nc2cc(C)c(C#N)c(NC(C)CCCC(C)(C)O)n2)n[nH]1 (centres undefined) [TC-A 2317 hydrochloride]  WPMY1-ACTB-RAB5A           µM               1
4  CCc1cccc(CC)c1NC(=O)N1Cc2[nH]nc(NC(=O)c3ccc(N4CCN(C)CC4)cc3)c2C1  WPMY1-ACTB-RAB5A           µM               1
5       O=C1Nc2ccc(F)cc2C1=C1Nc2ccccc2C1=NO  WPMY1-ACTB-RAB5A           µM               1
6  CN1C/C(=C/c2ccc(B(O)O)cc2)C(=O)/C(=C/c2ccc(B(O)O)cc2)C1  WPMY1-ACTB-RAB5A           µM               3

Inquiry: Please give the measured lowest phenotypically active concentration for this compound: O=C(CCCc1ccc(-c2ccccc2F)cc1)Nc1ccc(O)cc1
Reply text: 1

----------
For each record, write down the corresponding lowest phenotypically active concentration.
# Test system: A549-CANX-COX4
# assayName: lowest phenotypically active concentration; higher = less potent
# settings: treatment time: 24 h
Structures can show the parent of a compound that is named as a salt.

Sample answers from the record:
compound	tgt	recordedResult
CC(C)(C)c1cc(NC(=O)Nc2ccc(-c3cn4c(n3)sc3cc(OCCN5CCOCC5)ccc34)cc2)no1 [quizartinib]	A549-CANX-COX4	3 µM
Cc1cc(Nc2cc(N3CCN(C)CC3)nc(Sc3ccc(NC(=O)C4CC4)cc3)n2)[nH]n1	A549-CANX-COX4	≤ 0.3 µM
C=C1CN(Cc2ccc(C(=O)Nc3ccccc3N)cc2)C(=O)c2ccccc21	A549-CANX-COX4	≤ 0.3 µM

Quick batch: lowest phenotypically active concentration for everything below.
1. COc1cc2nc(N3CCCN(C)CC3)nc(NC3CCN(Cc4ccccc4)CC3)c2cc1OC
2. CC(C)NCCCn1c(Sc2cc3c(cc2I)OCO3)nc2c(N)ncnc21
3. Cc1cc(Nc2nc(N[C@@H](C)c3ncc(F)cn3)ncc2Cl)n[nH]1
4. CC(C)CNc1nc(-c2cccc3ncccc23)cn2c(-c3ccc(C(=O)NC4CC4)cc3)cnc12
5. COc1cc(C(=O)N2CCC(N3CCN(C)CC3)CC2)ccc1Nc1ncc2c(n1)N(C)c1ccccc1C(=O)N2C
6. COc1cc2ncnc(Nc3cccc(Br)c3)c2cc1OC
7. OCc1cc(C(O)CNCCCCCCOCCCCc2ccccc2)ccc1O (centres undefined) [salmeterol]

Reply text:
1: 1 µM; 2: ≤ 0.3 µM; 3: 3 µM; 4: 1 µM; 5: 3 µM; 6: 1 µM; 7: 9 µM

Quick batch: lowest phenotypically active concentration for everything below.
1. COC(=O)Nc1nc2ccc(C(=O)c3cccs3)cc2[nH]1 [Nocodazole]
2. Cc1ccc(/C(=C/CN2CCCC2)c2cccc(/C=C/C(=O)O)n2)cc1 [acrivastine]
3. COc1cc2c(cc1-c1c(C)noc1C)ncc1[nH]c(=O)n([C@H](C)c3ccccn3)c12 [I-BET 151 dihydrochloride]
4. CON(C)C(=O)N1N=C(c2cc(F)ccc2F)S[C@@]1(CCCN)c1ccccc1 [ARRY 520 trifluoroacetate]

Reply text:
1. ≤ 0.3 µM
2. 9 µM
3. 3 µM
4. ≤ 0.3 µM

Quick batch: lowest phenotypically active concentration for everything below.
1. N=C(N)NC(=N)NCCc1ccccc1 [phenformin]
2. O=C1/C(=C\c2ccncc2)CCC/C1=C\c1ccncc1
3. Cc1cc(Nc2cc(C)c(C#N)c(NC(C)CCCC(C)(C)O)n2)n[nH]1 (centres undefined) [TC-A 2317 hydrochloride]
4. CC1(C)CC(=O)C2=C(C1)NC(=S)NC2c1cccc(O)c1 (centres undefined) [Dimethylenastron]
5. CN(C)CCCNc1c2c(=O)n(C)c(=O)nc-2n(C)c2ccccc12
6. O=C1c2c(O)ccc(O)c2C(=O)c2c(NCCNCCO)ccc(NCCNCCO)c21 [mitoxantrone]
7. CCC(=O)OCC(=O)[C@@]1(OC(=O)CC)[C@@H](C)C[C@H]2[C@@H]3CCC4=CC(=O)C=C[C@]4(C)[C@@]3(Cl)[C@@H](O)C[C@@]21C [beclomethasone-dipropionate]

Reply text:
1: 9 µM; 2: 3 µM; 3: 1 µM; 4: 3 µM; 5: 9 µM; 6: ≤ 0.3 µM; 7: ≤ 0.3 µM

Quick batch: lowest phenotypically active concentration for everything below.
1. COc1cc(O)cc(O)c1C(=O)/C=C/c1ccccc1 [Cardamonin]
2. C[C@@H]1CN(CC(=O)Nc2ccc3c(c2)Cc2cccc(-c4cc(=O)cc(N5CCOCC5)o4)c2S3)C[C@H](C)O1
3. C[C@H]1[C@H]2CC[C@H]3[C@@H]4CC=C5C[C@@H](N(C)C)CC[C@]5(C)[C@H]4CC[C@]23CN1C [Conessine]

Reply text:
1. 9 µM
2. 9 µM
3. 9 µM

----------
# System: HepG2-ACTB-RAB5A
# assayName: phenotypically active (imaging signature differs from DMSO and reproducible) at any of 0.3-9 uM (binary (1 = active, 0 = inactive)); higher = active
# settings: treatment time: 24 h
For each record, write down the corresponding phenotypically active.
One number for each entry.

Sample answers from the record:
compound	tgt	phenotypically active
O=C(NC(NC(=S)Nc1ccc(F)c([N+](=O)[O-])c1)C(Cl)(Cl)Cl)C(c1ccccc1)c1ccccc1 (stereo unspecified)	HepG2-ACTB-RAB5A	1
CNC(=O)COC(=O)NCCC1CCN(c2cccc(C)n2)CC1	HepG2-ACTB-RAB5A	0
O=C(/C=C\c1ccc(O)c(O)c1)O[C@H]1C[C@](OC(=O)/C=C/c2ccc(O)c(O)c2)(C(=O)O)C[C@H](O)[C@H]1O	HepG2-ACTB-RAB5A	0
Cc1ccc(-c2c(-c3nn(C)c4ncnc(N5CC[C@H](N6CCCCC6)C5)c34)cnn2C)cc1	HepG2-ACTB-RAB5A	0
CO[C@@H]1[C@H](N(C)C(=O)c2ccccc2)C[C@H]2O[C@]1(C)n1c3ccccc3c3c4c(c5c6ccccc6n2c5c31)C(=O)NC4	HepG2-ACTB-RAB5A	1

Quick batch: phenotypically active for everything below.
1. CCOC(=O)[C@H](CCc1ccccc1)N[C@H]1CCc2ccccc2N(CC(=O)O)C1=O
2. NC(=O)c1ncn([C@@H]2O[C@H](CO)[C@@H](O)[C@H]2O)c1N
3. C[C@]12CC[C@@H]3c4ccc(O)cc4CC[C@H]3[C@@H]1CC[C@@H]2OC(=O)CCC1CCCC1 [estradiol cypionate]
4. CS(=O)(=O)c1cccc(CNc2nc(Nc3ccc4c(c3)CCC(=O)N4)ncc2C(F)(F)F)c1
5. O=C(CCCCCCC(=O)NO)NO
6. O=c1cc(-c2cccc3c2Sc2ccccc2S3)oc(N2CCOCC2)c1
7. COc1ccc([C@@H]2CC(=O)c3c(O)cc(O)cc3O2)cc1O

Reply text:
1. 0
2. 0
3. 0
4. 1
5. 1
6. 1
7. 0

Quick batch: phenotypically active for everything below.
1. C[C@]1(OC(=O)/C=C/c2ccccc2)C[C@@H](O)[C@]2(O)C=CO[C@@H](O[C@@H]3O[C@H](CO)[C@@H](O)[C@H](O)[C@H]3O)[C@@H]21 [Harpagoside]
2. Nc1ccc(C(=O)O)c(O)c1 [aminosalicylate]

Reply text:
1. 0
2. 0

Quick batch: phenotypically active for everything below.
1. O=c1[nH]cnc2[nH]ncc12
2. Cc1c2oc3c(C)ccc(C(=O)NC4C(=O)NC(C(C)C)C(=O)N5CCCC5C(=O)N(C)CC(=O)N(C)C(C(C)C)C(=O)OC4C)c3nc-2c(C(=O)NC2C(=O)NC(C(C)C)C(=O)N3CCCC3C(=O)N(C)CC(=O)N(C)C(C(C)C)C(=O)OC2C)c(N)c1=O (stereo unspecified)

Reply text:
1. 0
2. 1

----------
# Test system: A549-GM130-SQSTM1
# assayName: phenotypically active (imaging signature differs from DMSO and reproducible) at any of 0.3-9 uM (binary (1 = active, 0 = inactive)); higher = active
# settings: treatment time: 24 h
Structures can show the parent of a compound that is named as a salt.
For each record, write down the corresponding phenotypically active.
One number for each entry.

Sample answers from the record:
> print(dat)
                                   compound       measuredproperty  recordedresult
1  O=C(Nc1cccnc1)c1cc(-c2ccnc(F)c2)ccc1OCc1ccccc1  phenotypically active               0
2  Cc1ccc(-c2cc(C(F)(F)F)nn2-c2ccc(S(N)(=O)=O)cc2)cc1 [celecoxib]  phenotypically active               0
3  COc1cc(O)cc(O)c1C(=O)/C=C/c1ccccc1 [Cardamonin]  phenotypically active               1
4  O=C(Cc1ccc(-c2ccc(OCCN3CCOCC3)cc2)cn1)NCc1ccccc1  phenotypically active               1
5  O=c1cc(-c2ccccc2)oc2cc(O)cc(O)c12 [Chrysin]  phenotypically active               1

Quick batch: phenotypically active for everything below.
1. C[C@H]1COCCN1c1cc(C2(S(=O)(=O)C3CC3)CC2)nc(-c2ccc(NC(=S)NCCO)cc2)n1
2. CN(C)CC(=O)Nc1ccc2[nH]c(=O)c3ccccc3c2c1 [PJ 34 hydrochloride]
3. COC(=O)c1ccc(N2CCN(C)CC2)c(NC(=O)c2cccc(OC)c2)c1
4. CCn1c(=O)n([C@H]2CCCN(c3nccc(-c4cc5ccccc5o4)n3)C2)c2ccccc21
5. O=C(CCCCSc1nc(-c2ccc(-c3ccccc3)cc2)cc(=O)[nH]1)NO
6. C(=C/c1ccccc1)/CN1CCN(C(c2ccccc2)c2ccccc2)CC1 [cinnarazine]

Reply text:
1
1
0
1
1
0

Quick batch: phenotypically active for everything below.
1. O=C(/C=C\c1ccc(O)c(O)c1)O[C@H]1C[C@](OC(=O)/C=C/c2ccc(O)c(O)c2)(C(=O)O)C[C@H](O)[C@H]1O [Cynarin]
2. O=C(NCc1cccc(O)c1)Nc1nc(-c2ccncc2)cs1 [RKI 1447 dihydrochloride]

Reply text:
1: 0; 2: 1

Quick batch: phenotypically active for everything below.
1. COc1ccc(Cn2ccc3ccc(C(=O)NO)cc32)cc1
2. Cc1ccc(N(CC2=NCCN2)c2cccc(O)c2)cc1 [phentolamine]
3. O=c1cc(N2CCOCC2)oc2c1ccc1ccccc12
4. O=C1CC(c2ccc(O)cc2)Oc2cc(O)cc(O)c21 (centres undefined) [Naringenine]

Reply text:
[0, 0, 1, 0]

Quick batch: phenotypically active for everything below.
1. CC1=C(C(=O)Nc2cc3cn[nH]c3cc2F)C(c2ccc(C(F)(F)F)cc2)CC(=O)N1 (centres undefined)
2. Cc1ccc(NC(=O)c2cccc(C(C)(C)C#N)c2)cc1Nc1ccc2ncn(C)c(=O)c2c1

Reply text:
1
0
